Record type: Ki measurement. Applies to: UniProt:P31652
Sequence (P31652 whole entry): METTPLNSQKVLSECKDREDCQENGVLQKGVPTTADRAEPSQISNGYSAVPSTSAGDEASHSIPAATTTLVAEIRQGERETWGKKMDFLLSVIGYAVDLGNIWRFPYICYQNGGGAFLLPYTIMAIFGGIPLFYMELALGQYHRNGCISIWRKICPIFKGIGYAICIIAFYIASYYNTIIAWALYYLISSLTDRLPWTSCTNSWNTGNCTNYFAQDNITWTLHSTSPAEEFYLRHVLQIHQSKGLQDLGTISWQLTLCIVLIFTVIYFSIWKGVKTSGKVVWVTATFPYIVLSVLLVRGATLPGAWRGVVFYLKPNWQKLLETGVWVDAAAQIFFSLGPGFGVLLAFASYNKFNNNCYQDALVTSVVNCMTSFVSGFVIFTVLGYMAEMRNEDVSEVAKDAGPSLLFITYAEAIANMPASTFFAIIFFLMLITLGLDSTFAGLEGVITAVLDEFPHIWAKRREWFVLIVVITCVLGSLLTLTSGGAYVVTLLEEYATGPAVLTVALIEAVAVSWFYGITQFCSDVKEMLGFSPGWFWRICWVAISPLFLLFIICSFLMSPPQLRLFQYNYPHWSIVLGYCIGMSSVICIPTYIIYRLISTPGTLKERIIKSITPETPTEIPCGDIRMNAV
MEASURED_PROPERTY: Ki (nM)

Use the examples below as a reference point.
>>> meas_value("Cc1nc2ccc3c(c2o1)O[C@@H](CN[C@H]1CC[C@H](c2c[nH]c4ccc(F)cc24)C1)CO3 (mixture of isomers)")
1.38
>>> meas_value("Cc1ccc2c3c(ccc2n1)OCC(CNC1CCC(c2cn(C)c4ccc(F)cc24)C1)O3 (single isomer, unassigned) [Example 5-Isomer A]")
2.11

P = Cc1ccc2c3c(ccc2n1)OCC(CNC1CCC(c2cn(C)c4ccc(F)cc24)C1)O3 (single isomer, unassigned) [Example 6]
Q = Cc1ccc2c3c(ccc2n1)OC[C@H](CN[C@H]1CC[C@H](c2c[nH]c4ccc(F)cc42)CC1)O3
R = Cc1ccc2c3c(ccc2n1)OC[C@H](CN[C@H]1CC[C@H](c2c[nH]c4ccc(F)cc24)C1)O3 (single isomer, unassigned) [Example 4-Isomer A]
-- ask Would you mind ranking these compounds by ascending Ki? Answer format: the labels, in the requested order.
-- reply R, P, Q
